Reference source: ChEMBL document CHEMBL3244371

Tested on: Rattus norvegicus
assay_info: Antihypertensive activity in spontaneously hypertensive rat assessed as maximum fall in mean arterial pressure at 20 mg/kg, ip
Assay type: functional, Artery
protocol_conditions: route intraperitoneal
Assignment: determine reported Activity for the given compounds.
Quick note: give the figure in mmHg, leave out the unit.

(Q) I'd like to know its Activity. The compound in question is `CC(C)(C)NC[C@H](O)COc1ccc(-c2ncc(C(F)(F)F)[nH]2)cn1`
(A) 40

(Q) Can you look up the measured Activity of `CC(C)(C)NC[C@H](O)COc1ccccc1-c1ncc(C(F)(F)F)[nH]1` for me?
(A) 32

(Q) Quick check: Activity of `CC(C)(C)NC[C@H](O)COc1ncccc1-c1ncc(C(F)(F)F)[nH]1` ?
(A) 8

(Q) Bench note: what Activity did `CC(C)(C)NC[C@H](O)COc1cccc(-c2ncc(C(F)(F)F)[nH]2)c1` show?
(A) 40

* * *

Exercise: for every item that follows, state its recorded log10(ED50).
Tested on: Canis familiaris
assay_info: Blockade of isoprolerenol-induced tachycardia in iv dosed anesthetized trachea-cannulated mongrel dog assessed as heart rate
Assay type: functional
protocol_conditions: Canis lupus familiaris
Could you please treat all values as log10 of ED50 in mg/kg?

(Q) Can you look up log10(ED50) on Canis familiaris for CC(C)(C)NCC(O)COc1ccc(-c2nc(C(F)(F)F)c[nH]2)cc1 (racemic) ?
(A) -2.05

(Q) Recorded log10(ED50) for `CC(C)(C)NC[C@H](O)COc1ccc(-c2ncc(C(F)(F)F)[nH]2)cn1` with Canis familiaris, please?
(A) -2.60

(Q) Notebook: pull reported log10(ED50) for Canis familiaris, entry `CC(C)(C)NC[C@H](O)COc1ccc(-c2nc(C(F)(F)F)c[nH]2)cc1`
(A) -2.12

(Q) State its log10(ED50) on Canis familiaris: `CC(C)(C)NC[C@H](O)COc1ccccc1-c1ncc(C(F)(F)F)[nH]1`
(A) -0.52

(Q) What log10(ED50) appears in the records for this molecule with Canis familiaris? `CC(C)(C)NC[C@H](O)COc1ncccc1-c1ncc(C(F)(F)F)[nH]1`
(A) -0.60

(Q) Record lookup: for Canis familiaris, what log10(ED50) belongs to `CC(C)(C)NC[C@@H](O)COc1ccc(-c2ncc(C(F)(F)F)[nH]2)cc1` ?
(A) -0.99
